# assayed_target: E. coli cysteinyl-tRNA synthetase (EcCysRS) (Escherichia coli, UniProt P21888)
# Sequence (P21888 whole entry): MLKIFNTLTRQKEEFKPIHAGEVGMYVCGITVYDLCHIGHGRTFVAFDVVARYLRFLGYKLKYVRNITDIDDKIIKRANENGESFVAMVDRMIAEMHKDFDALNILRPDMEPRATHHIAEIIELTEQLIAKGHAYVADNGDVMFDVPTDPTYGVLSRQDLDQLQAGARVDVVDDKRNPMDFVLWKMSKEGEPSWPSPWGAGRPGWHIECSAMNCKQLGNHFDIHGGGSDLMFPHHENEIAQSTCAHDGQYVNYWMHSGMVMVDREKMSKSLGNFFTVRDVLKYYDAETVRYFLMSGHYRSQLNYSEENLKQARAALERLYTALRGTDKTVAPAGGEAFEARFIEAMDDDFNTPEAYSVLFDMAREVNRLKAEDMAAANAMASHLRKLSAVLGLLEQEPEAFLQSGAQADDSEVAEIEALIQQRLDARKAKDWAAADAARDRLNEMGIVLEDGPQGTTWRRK
endpoint_name: IC50

Give its IC50 value. Item: Nc1ncnc2c1ncn2[C@@H]1O[C@H](COS(=O)(=O)NC(=O)[C@@H](N)CS)[C@@H](O)[C@H]1O [Cys-AMS]
< 600 nM

Measured values drawn from paper PMC5511029 for this set.
